Below, each of the compounds is paired with its reported IC50 value.
Target: Nucleotide-binding oligomerization domain-containing protein 2 (Homo sapiens, UniProt Q9HC29)
Sequence (Q9HC29 whole entry, the tested form may be a part): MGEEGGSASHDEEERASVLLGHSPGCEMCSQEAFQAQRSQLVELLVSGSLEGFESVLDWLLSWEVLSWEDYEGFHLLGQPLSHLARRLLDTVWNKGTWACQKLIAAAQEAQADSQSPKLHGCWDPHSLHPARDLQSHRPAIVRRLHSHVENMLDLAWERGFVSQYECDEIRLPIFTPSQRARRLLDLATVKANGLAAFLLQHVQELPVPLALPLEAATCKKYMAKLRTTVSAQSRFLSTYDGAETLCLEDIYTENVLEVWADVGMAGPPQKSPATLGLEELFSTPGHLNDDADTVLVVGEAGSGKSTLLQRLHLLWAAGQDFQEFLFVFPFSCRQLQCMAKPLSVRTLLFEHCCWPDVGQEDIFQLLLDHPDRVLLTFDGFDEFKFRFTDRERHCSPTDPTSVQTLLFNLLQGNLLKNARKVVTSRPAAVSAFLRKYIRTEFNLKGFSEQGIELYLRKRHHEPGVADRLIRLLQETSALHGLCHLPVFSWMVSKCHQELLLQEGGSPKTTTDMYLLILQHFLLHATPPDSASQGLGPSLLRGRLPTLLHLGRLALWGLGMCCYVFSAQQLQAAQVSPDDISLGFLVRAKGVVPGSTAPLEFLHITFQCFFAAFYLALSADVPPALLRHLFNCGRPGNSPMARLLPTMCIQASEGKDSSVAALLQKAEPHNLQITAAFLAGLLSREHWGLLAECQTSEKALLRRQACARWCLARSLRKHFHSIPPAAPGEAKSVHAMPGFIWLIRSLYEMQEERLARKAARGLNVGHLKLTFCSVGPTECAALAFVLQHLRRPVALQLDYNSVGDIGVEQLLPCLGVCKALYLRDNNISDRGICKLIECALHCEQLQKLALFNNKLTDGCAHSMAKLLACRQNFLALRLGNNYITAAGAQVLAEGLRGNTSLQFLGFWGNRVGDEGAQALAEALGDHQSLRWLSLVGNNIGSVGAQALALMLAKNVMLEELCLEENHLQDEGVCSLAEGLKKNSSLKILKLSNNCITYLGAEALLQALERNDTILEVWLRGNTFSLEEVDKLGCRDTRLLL
Assay: Inhibition of human NOD2 over-expressed in HEK-Blue cells assessed as inhibition of […] NF-kappaB transcriptional activity preincubated for 1 hr followed by addition of C12-iE-DAP measured after 18 hrs by SEAP reporter gene assay

>  <smiles-record>
CCOC(=O)c1cc2ccccc2n1S(=O)(=O)c1ccc([N+](=O)[O-])cc1

>  <IC50>
16.9 µM

$$$$
>  <smiles-record>
CCOC(=O)c1cc2ccccc2n1Cc1ccc(C)cc1

>  <IC50>
9.04 µM

$$$$
>  <smiles-record>
CCOC(=O)c1cc2ccccc2n1S(=O)(=O)c1ccc(C)cc1

>  <IC50>
6.45 µM

$$$$
>  <smiles-record>
N=C1Cc2ccccc2N1Cc1ccc(Cl)cc1

>  <IC50>
> 25 µM

$$$$
>  <smiles-record>
CCOC(=O)c1cc2ccccc2n1S(=O)(=O)c1ccc(Cl)cc1

>  <IC50>
23.4 µM

$$$$
>  <smiles-record>
CCOC(=O)c1cc2ccccc2n1S(=O)(=O)c1ccc(F)cc1

>  <IC50>
12.6 µM

$$$$
>  <smiles-record>
CCOC(=O)c1cc2ccccc2n1C(=O)c1ccc(C)cc1

>  <IC50>
24.6 µM

$$$$
>  <smiles-record>
Cc1ccc(S(=O)(=O)n2c(N)nc3ccccc32)cc1

>  <IC50>
54.9 µM

$$$$

meta.source: ChEMBL document CHEMBL4428099
